# Test system: Plasmodium berghei (Pb-Luc) exoerythrocytic-stage parasites
# experiment-notes: microbe, parasite or virus in culture
# experimental-conditions: read-out: PbLuc IC50, dose response, 1/3 dilutions, max conc. 10 or 50 uM, unit inferred
# Lookup of reported IC50 keyed by entry
Just the number in nM, nothing appended.

# count of solved cases: 5
I would be grateful if you could share the reported IC50 for COc1ccc(-c2cc3c(SCC(=O)Nc4cc(C(F)(F)F)ccc4Cl)nccn3n2)cc1 [MMV396679] .
2180

I would be grateful if you could share the reported IC50 for CC(C)(C)c1ccc(C2CC3=Nc4ccccc4N(C(=O)c4ccccc4Cl)C(c4ccc(F)cc4)C3=C(O)C2)cc1 (stereo not shown) [MMV011436] .
2390

I would be grateful if you could share the reported IC50 for Cc1ccc(-c2cc3nc4c(c(O)n3n2)CCCC4)cc1 [MMV006937] .
114

I would be grateful if you could share the reported IC50 for COCCn1c(C)nc2ccccc2c1=O [MMV665904] .
1990

I would be grateful if you could share the reported IC50 for Cc1sc2ncnc(Sc3nc4ccccc4[nH]3)c2c1C [MMV019266] .
530

Next:
I would be grateful if you could share the reported IC50 for CC(C)CCNCC(O)Cn1c2ccccc2c2ccccc21 (stereo not shown) [MMV006787] .
9600

I would be grateful if you could share the reported IC50 for CCOc1ccc(CCNC(=O)c2cccs2)cc1OCC [MMV007978] .
7940

I would be grateful if you could share the reported IC50 for CCc1ccc(Nc2cc(C)nc3nc(C)nn23)cc1 [MMV007374] .
4800

I would be grateful if you could share the reported IC50 for CCCc1c(C)nc2ccc(Br)cc2c1O [MMV666095] .
794

I would be grateful if you could share the reported IC50 for COc1ccc(C2c3ccc4ccccc4c3Oc3ncn(CCCN(C)C)c(=N)c32)cc1 (stereo not shown) [MMV667491] .
4000

I would be grateful if you could share the reported IC50 for CN(C)c1ccc(C(O)(c2ccc(N(C)C)cc2)c2ccc(N(C)C)cc2)cc1 [MMV665941] .
1690

I would be grateful if you could share the reported IC50 for Cc1cc(NC(=O)c2ccc(-c3ccccc3)cc2)no1 [MMV018984] .
790

I would be grateful if you could share the reported IC50 for FC(F)(F)c1ccc(Nc2nnnc3ccccc23)cc1 [MMV665935] .
738

I would be grateful if you could share the reported IC50 for Cc1ccc(Cn2c(N3CCC(C(=O)NCc4cccs4)CC3)nc3ccccc32)cc1 [MMV007564] .
2090

I would be grateful if you could share the reported IC50 for Oc1c(CN2CCN(c3ccccc3F)CC2)cc(Br)c2cccnc12 [MMV000760] .
1840

I would be grateful if you could share the reported IC50 for Oc1c2c(nc3ccccc13)CCCC2 [MMV665843] .
894

---

# System: Plasmodium berghei (Pb-Luc) exoerythrocytic-stage parasites
# experimental-conditions: concentration 0.37037, second replicate series; fraction of control
Labelling: normalized signal at 0.37037 (second series) reported below 0.8 becomes 1 (yes); at or above becomes 0 (no).

Past entries and their recorded results:
Please check: normalized signal at 0.37037 (second series) for `C[C@@H]1CN([C@H](C)CO)C(=O)c2ccccc2-c2ccccc2CO[C@H]1CN(C)C(=O)[C@H](Cc1ccccc1)N(C)C` , strictly under 0.8 or not?
0 (no)

Please check: normalized signal at 0.37037 (second series) for `C[C@H]1CN([C@@H](C)CO)C(=O)c2cccc(NC(=O)c3ccc(-c4nccs4)cc3)c2O[C@@H]1CN(C)C(=O)Nc1ccc(C(F)(F)F)cc1` , strictly under 0.8 or not?
1 (yes)

Please check: normalized signal at 0.37037 (second series) for `C[C@@H]1CN([C@H](C)CO)C(=O)c2cccc(NC(=O)c3ccc(-c4nccs4)cc3)c2O[C@H]1CN(C)C(=O)Nc1ccc(C(F)(F)F)cc1` , strictly under 0.8 or not?
1 (yes)

Please check: normalized signal at 0.37037 (second series) for `O=C(C[C@@H]1CC[C@@H]2[C@H](COC[C@@H](O)CN2C(=O)c2ccncc2)O1)Nc1ccc(-c2ccccc2)cc1` , strictly under 0.8 or not?
1 (yes)

Please check: normalized signal at 0.37037 (second series) for `O=C(Cc1ccccn1)N1CC2(C1)[C@H](c1ccccc1)[C@H](CO)N2C(=O)c1ccncc1` , strictly under 0.8 or not?
0 (no)

Next:
Please check: normalized signal at 0.37037 (second series) for `C/C=C/c1ccc([C@H]2[C@@H](CO)N(CC3CCCCC3)[C@@H]2CNC(C)C)cc1` , strictly under 0.8 or not?
0 (no)

Please check: normalized signal at 0.37037 (second series) for `N#C[C@@H]1[C@H](c2ccccc2C2=CCCC2)[C@H](CO)N1C(=O)C1CCOCC1` , strictly under 0.8 or not?
0 (no)
